target.entity: T1, C5 peptide 52-124 fused to GST-tag (human, UniProt P01031 52-124)
T1 construct: not shown: GST-tag (glutathione S-transferase); vector and linker not restated
assay.details: summary drawing of the binding reactions to C5 beta-chain fragments

>  <binder>
CFA0307 (antibody, V domains shown, Chimeric, rabbit V regions; also called CFA0307-F760G4) VH: QSLEESGGGLVKPGASLTLTCKASGIDFSNFYYICWVRQAPGKGLDLIACIYTVSGYTYYASWAKGRLTISKTSSTTVTLQMTSLTAADTATYFCARDLHAGITNLWGPGTLVTVSS VL: AIEMTQTPFSVSAAVGGTVTIKCQASQNIYSNLAWYQQKPGQRPKLLIYGASNLESGVPSRFKGSGSGTEYTLTISDLECADAATYYCLQGYSYSNVDDAFGGGTEVVVK

>  <binding result>
no binding

$$$$
>  <binder>
CFA0538 (antibody, V domains shown, Chimeric, rabbit V regions; also called CFA0538-F760G4) VH: QSVEESGGRLVTPGTPLTLTCTASGFSLSSYYMNWVRQAPGKGLEWIGMIYGSGATYYASWAKGRFTISKTSSTTVDLKMTSLTTEDTATYFCARQIYSGDNNDNFWGPGTLVTVSS VL: AYDMTQTPASVEVAVGGTVTINCQASESISNWLAWYQQKPGQRPKLLIYRASTLASGVSSRFKGSGSGTQFTLTISGVECDDAATYYCQQDYSSSNVDNTFGGGTTVVVE

>  <binding result>
no binding

$$$$
>  <binder>
CFA0672 (antibody, V domains shown, Chimeric, rabbit V regions; also called CFA0672-F760G4) VH: QSVEESGGRLVTPGTPLTLTCTASGFSLSGNAINWVRQAPGKGLEWIGCIYTGSDTTYYATWAKGRFTISKTSTTVDLKIASPTTEDTATYFCARGSGLWGPGTLVTVSS VL: DVVMTQTPASVSAPVGGTVTIKCQASQNIYSLLAWYQQKPGQPPKLLIYHTSDLASGVPSRFRGSGSGTEFTLTISDLECADAATYYCQCTAYGSSDVGGTFGGGTTVVVE

>  <binding result>
no binding

$$$$
